test system: 966289-007-R4-J1-PDC complex spheroid viability; test: Anticancer human tumor 966289-007-R4-J1-PDC patient-derived pancreatic adenocarcinoma cell line growth inhibition [RAS]; conditions: second compound 3.16 µM; first compound 10 µM; hits give low values
property: viability, T/C (%)
# value in %; strip the unit string

Below, each entry is followed by its recorded viability, T/C result.
>  <compound>
Cc1nc(N2CCC3(CC2)COC(C)C3N)c(CO)nc1Sc1ccnc(N)c1Cl (stereo not given) + C#Cc1c(F)ccc2cc(O)cc(-c3ncc4c(N5CC6CCC(C5)N6)nc(OCC56CCCN5CC(F)C6)nc4c3F)c12

>  <measure.unit>
%

>  <viability, T/C>
98

$$$$
>  <compound>
CC1(O)CCCC1n1c(=O)c(C(F)F)cc2cnc(NC3CCN(S(C)(=O)=O)CC3)nc21 (stereo not given) + C#Cc1c(F)ccc2cc(O)cc(-c3ncc4c(N5CC6CCC(C5)N6)nc(OCC56CCCN5CC(F)C6)nc4c3F)c12

>  <measure.unit>
%

>  <viability, T/C>
5.29

$$$$
>  <compound>
CC(Nc1ccc2c(c1)OCCn1cc(N3C(=O)OCC3C(F)F)nc1-2)C(N)=O (stereo not given) + C#Cc1c(F)ccc2cc(O)cc(-c3ncc4c(N5CC6CCC(C5)N6)nc(OCC56CCCN5CC(F)C6)nc4c3F)c12

>  <measure.unit>
%

>  <viability, T/C>
83.1

$$$$
>  <compound>
CC(=O)OC12COC1CC(O)C1(C)C(=O)C(O)C3=C(C)C(OC(=O)C(O)C(NC(=O)OC(C)(C)C)c4ccccc4)CC(O)(C(OC(=O)c4ccccc4)C21)C3(C)C (stereo not given) + C#Cc1c(F)ccc2cc(O)cc(-c3ncc4c(N5CC6CCC(C5)N6)nc(OCC56CCCN5CC(F)C6)nc4c3F)c12

>  <measure.unit>
%

>  <viability, T/C>
83.2

$$$$

Requested field: viability, T/C. Item: CC(C)NCC(C(=O)N1CCN(c2ncnc3c2C(C)CC3O)CC1)c1ccc(Cl)cc1 (stereo not given) + C#Cc1c(F)ccc2cc(O)cc(-c3ncc4c(N5CC6CCC(C5)N6)nc(OCC56CCCN5CC(F)C6)nc4c3F)c12
33

====

system: 966289-007-R4-J1-PDC complex spheroid viability; test: Anticancer human tumor 966289-007-R4-J1-PDC cell line growth inhibition [RAS]; conditions: second compound 0.03 µM; first compound 1 µM; hits give low values;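 further: spheroids exposed to agents for one week before readout; percent viability relative to DMSO vehicle control wells as 100%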
Known viability, T/C of a selection of molecules

Below, each entry is followed by its recorded viability, T/C result.
>  <molecule>
C[C@@H](NC(=O)c1ncnc(N)c1Cl)c1ncc(C(=O)Nc2cc(C(F)(F)F)c(Cl)cn2)s1 + CCn1c(-c2cc(N3CCN(C)CC3)cnc2C(C)OC)c2c3cc(ccc31)-c1csc(n1)CC(NC(=O)C1CC1C)C(=O)N1CCCC(N1)C(=O)OCC(C)(C)C2

>  <experimental.value>
123%

$$$$
>  <molecule>
O=C(c1ccc(F)c(F)c1Nc1ccc(I)cc1F)N1CC(O)([C@@H]2CCCCN2)C1 + CCn1c(-c2cc(N3CCN(C)CC3)cnc2C(C)OC)c2c3cc(ccc31)-c1csc(n1)CC(NC(=O)C1CC1C)C(=O)N1CCCC(N1)C(=O)OCC(C)(C)C2

>  <experimental.value>
15.5%

$$$$
>  <molecule>
Cc1nc(N2CCC3(CC2)COC(C)C3N)c(CO)nc1Sc1ccnc(N)c1Cl (centres undefined) + CCn1c(-c2cccnc2C(C)OC)c2c3cc(ccc31)N1CCOC(CC(NC(=O)C(C(C)C)N(C)C(=O)C3(F)CCN(C(=O)C#CC(C)(C)N(C)C)CC3)C(=O)N3CCCC(N3)C(=O)OCC(C)(C)C2)C1

>  <experimental.value>
82.6%

$$$$

Consider now this further molecule.
Requested field: viability, T/C. Item: CCN1CCN(Cc2ccc(Nc3ncc(F)c(-c4cc(F)c5nc(C)n(C(C)C)c5c4)n3)nc2)CC1 + CCn1c(-c2cc(N3CCN(C)CC3)cnc2C(C)OC)c2c3cc(ccc31)-c1csc(n1)CC(NC(=O)C1CC1C)C(=O)N1CCCC(N1)C(=O)OCC(C)(C)C2
85.1%
